Just for reference, patent US4139538A is where these values come from.

For each record, write down the corresponding ED50.
experimental-details: paralysis: loss of the postural and balancing reflexes (lying down)
Assay type: in vivo, mice
study-conditions: Mus musculus, po, read-out: Paralysis ED50
Numbers only, in mg/kg.

Below: 2 compounds and their reported ED50.
# compound, recorded-number
rows = [
    ("CCC1(c2ccccc2)C(=O)NC(=O)NC1=O [Na-phenocarbital, reference compound]", 150),
    ("CC1(c2ccccc2)OC(=O)NC1CCl (stereo not drawn)", 1000),
]

Your task in this section: give ED50 for each listed record.
1. CCCC(CCC)C(=O)O [Dipropylacetate, reference compound]
2. CCCC(C)(COC(N)=O)COC(N)=O [Meprobamate, reference compound]

1000
800

###

experimental-details: minimum pentetrazole shock test (min PS), protection against clonic cramp
Format: in vivo, mice
study-conditions: Mus musculus, po, 1 h; mice, 70 mg/kg pentetrazole s.c., 60 minutes after p.o. administration; protection in 50% of the animals; read-out: Anticonvulsive activity Min PS ED50
experimental-endpoint: ED50 (mg/kg)
Numbers only, in mg/kg.

Below: 5 compounds and their reported ED50.
# compound, ED50 / mg/kg
records = [
    ("CN1C(=O)OC(c2ccccc2)C1C(C)(C)O (centres unmarked) [Example 38]", 640),
    ("CCC(O)(CC)C1NC(=O)OC1c1ccccc1 (centres unmarked) [Example 40]", 430),
    ("CC(C)(O)C1NC(=O)OC1c1ccccc1 (centres unmarked) [Example 37]", 130),
    ("CN1C(=O)OC(C)(C)C1=O [Trimethadione, reference compound]", 240),
    ("CCC(O)(c1ccccc1)C1COC(=O)N1 (centres unmarked) [Example 54]", 85),
]

Your task in this section: give ED50 for each listed record.
1. CCCC(O)(CCC)C1COC(=O)N1 (centres unmarked) [Example 45]
2. C=CCC(O)(c1ccccc1)C1COC(=O)N1 (centres unmarked) [Example 58]

[430, 300]

Need ED50, item CCC(O)(c1ccccc1)C1NC(=O)OC1C (centres unmarked) [Example 18]
200

###

For each record, write down the corresponding LD50 at 168 h.
experimental-details: in vivo
study-conditions: mouse, po

# molecule, LD50 at 168 h
data = [
    ("CCCC(CCC)C(=O)O [Dipropylacetate, reference compound]", "> 1000 mg/kg"),
]

Your task in this section: give LD50 at 168 h for each listed record.
1. C=CCN1C(=O)OC(c2ccccc2)C1C(C)(C)O (centres unmarked)
2. CCC(O)(c1ccc(Cl)cc1)C1COC(=O)N1 (centres unmarked)
3. CCC1(c2ccccc2)C(=O)NC(=O)NC1=O [Na-phenocarbital, reference compound]
4. CN1C(=O)OC(c2ccccc2)C1C(C)(C)O (centres unmarked)

1. 1000 mg/kg
2. > 1000 mg/kg
3. 320 mg/kg
4. > 1000 mg/kg

###

experimental-details: minimum pentetrazole shock test (min PS), protection against clonic cramp;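 note: albino NMRI mice, oral dosing, clonic seizures provoked 60 min later by subcutaneous pentetrazole 70 mg/kg, ED50 is the dose protecting half of animals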
Format: in vivo, mice
study-conditions: Mus musculus, po, 1 h; mice, 70 mg/kg pentetrazole s.c., 60 minutes after p.o. administration; protection in 50% of the animals; read-out: Anticonvulsive activity Min PS ED50
For each record, write down the corresponding ED50.

# compound, ED50
measured = [
    ("C=CCC(O)(CC=C)C1NC(=O)OC1c1ccccc1 (stereo not drawn) [Example 43]", "> 464 mg/kg"),
]

Your task in this section: give ED50 for each listed record.
1. O=C1NC(C(O)(c2ccccc2)c2cccc(Cl)c2)CO1 (stereo not drawn) [Example 49]
2. CCCC(O)(CCC)C1NC(=O)OC1c1ccccc1 (stereo not drawn) [Example 41]

> 464 mg/kg
> 464 mg/kg
